Listed below: koff values for each entry.
Assayed System: monomeric alpha-synuclein, P37840
Assay Explanation: SPR, captured mAb
Conditions Used: remark: other sources report otherwise
// note: answer is a bare numeric in s⁻¹

ACI-7089-4418F6-Ab1 (antibody, V domains shown) VH: QVQLQQSGAELARPGASVKVSCKASGYTFTSSGISWLKHRTGQGLEWIGDIYPRSGNTYYNEKFKDKATLTADKSSSTAYMELRSLTSEDSAVYFCSSGNYWGQGTTLTVSS VL: DIVITQDDLSNPVTSGESVSISCRSSKSLLYKDGKTYLNWFLQRPGQSPQLLIYLMSTRASGVSDRFSGSGSGTDFTLEISRVKAEDVGVYYCQQLLEYPLTFGAGTKLELK | 9.25e-06
ACI-8033-1A12-Ab1 (antibody, V domains shown) VH: QVHLKQSGADLVRPGASVKLSCKASGYSFTDFYINWVKQTPGQGLEWIARIYPGNNNTFYNEKFKGKATLSAEKSSTTAYMQLSSLTSEDSAVYFCVVGYYGAWGQGTTLTVSS VL: DVVMTQTPLSLPVSLGDQASISCRSSQSLVHSNGNTHLHWYLQKPGQSPKLLIYKVSNRFSGVPDRFSGSGSGTDFTLKISRVEAEDLGFYFCSQSTHVPWTFGGGTKLEIK | 0.0327
ACI-7079-2606A6-Ab2 (antibody, V domains shown) VH: QVQLQQSGPELVKPGASVKISCKASGFAFSSSWMNWVKQRPGKGLEWVGRIFPGDGDTNYDRKFKDKATLTADKSSSTAYMQLSSLTSEDSAVYFCARWTGGYDWFAYWGQGTLVTVSA VL: DIVLTQSPASLAVSLGQRATISCRASQSVSTSNYNYLHWYQQKPGQPPKLLITYASNLESGVPARFSGSGSGTDFTLNIHPVEEGDTATYYCQHSWEIPLTFGAGTKLELK | 0.00412
ACI-7088-4303A1-Ab1 (antibody, V domains shown) VH: EVQLQQSGAELVRPGASVKLSCTASGFNIKDDYMHWVKQRPEQGLEWIGWIDPENGDSEYASKFQGKATMTADTSSNTAYLQLSSLTSEDTAVYYCKTWGTAQALFPYWGQGTLVTVSA VL: DIVMTQSQKFMSTSVGDRVSITCKASQNVGTSVGWYQQKAGQSPKLLIHSASNRYTGVPDRFTGSGSGTDFTLTINNMQSEDLADYFCQQYRSYPLTFGAGTKLELK | 0.0632
ACI-7079-2501B11-Ab3 (antibody, V domains shown) VH: QVQLQQSGPELVKPGASVKISCKASGYAFSSFWMNWMKQRPGKGLEWIGRIYPGDGDAHYNGEFKGRATLTADKSSSTAYMQLSSLTSEDSAVYFCARKGDFYGSNYDYWGQGTTLTVSS VL: QAVVTQESALTTSPGETVTLTCRSSTGAVTTSNYANWVQEKPDHLFTGLIGGTNNRAPGVPARFSGSLIGDKAALTITGAQTEDEAIYFCALWYSNHLVFGGGTRLTVL | 0.000335
ACI-7079-2501D10-Ab1 (antibody, V domains shown) VH: EVQLVESGGGLVQPKGSLKVSCAASGFTFKTYAMHWVRQAPGKGLEWVARIRSENSNFAKYYADSVKDRFTISRDDSQSMLYLQMNNLKTEDTAMYYCVRGYNGSSLDYWGQGTTLTVSS VL: QIVLTQSPAIMSAFPGERVTMTCSASSSVNYMHWYQQKSGTSPKRWIYDTSKLASGVPARFSGGGSGTSYSLTISNMEAEDAATYYCQQWRSNPPTFGGGTKLEIK | 0.00043
ACI-7067-1108B11-Ab2 (antibody, V domains shown) VH: EVQLVESGGGLVQPKGSLKLSCAASGFTFNTYAMHWVRQAPGKGLEWVARIRSKGSNYATNYADSVKDRFTISRDDSQSMLYLQMNNLKTEDTAMYYCVRGHGSSYFSYWGQGTLVTVSA VL: QIVLTQSPAIMSASPGERITMTCSANSSVTYMHWYQQKSGTSPKRWIYDTSNLASGVPARFSGSGSGTSYSLTISSMEAEDAATYYCQQWKSHPPTFGAGTKLELK | 0.00154
ACI-8033-4F3-Ab1 (antibody, V domains shown) VH: EVQLQQSGPELVKPGASVKISCKASGYTFTDYYMNWVKQSHGKSLEWIGDINPNTGTNSYNQKFKGRASLTVDKFSSAAYMELRSLTSEDSAVYYCARTGYGDPISSYYYALDYWGQGTSVTVSS VL: DIVMSQSPSSLAVSAGEKVTMSCKSSQSLLNSRTRKNYLAWYQQKPGQSPKLLIYWASTRESGVPDRFTGSGSGTDFTLTISSVQAEDLAVYYCKQSYNLWTFGGGTKLEIK | 0.00016
ACI-7079-2603C1-Ab3 (antibody, V domains shown) VH: QVQLQQPGADLVKPGASVKLSCKASGYTFTSYWMQWTKQRPGQGLEWIGEIDPSDSYANYNQKFKGKATLTVDKYSSTAYMQLNSLTSEDSAVYYCALYDGPSYWGQGTLVTVS VL: ENVLTQSPAIMSASPGEKVTMTCSAGSSVSYMHWFQQKSSTSPKLWIYDTSKLPSGVPGRFSGSGSGNSYSLTISSMEAEDVATYYCFQGSGYPYTFGGGTKLEIK | 6.06

Lab note: ACI-7079-2501G2-Ab2 (antibody, V domains shown) VH: EVQLVESGGGLVQPKGSLKLSCAASGFNFNTYAMNWVRQAPGKGLEWVARIRTKSNNFATYYAHSVKDRFTISRDDSESMLYLQMNNLKTEDTAMYYCVRQGLAYYAMDYWGQGTSVTVSS VL: DVLMTQTPLSLPVSLGDQVSISCRSSQTIVHSNGNTYLEWYLQKPGQSPKLLIYKVSNRFSGVPDRFSGSGSGTDFTLKISRVEAEDLGVYYCFQGSQGPLTFGAGTKLELK gave koff of 0.00084
